# assay.procedure: xn = mol fraction of the nth substance listed
# condition.info: 333.15 K; 100 kPa; Liquid; Vibrating tube method; x1 = 0.01
Consider the following compounds and their measured mass density readings.
Report the figure in kg/m3 without appending any unit label.

[F-].[K+] [potassium fluoride] + O	1010
[Br-].[K+] [potassium bromide] + O	1029.2
[F-].[Na+] [sodium fluoride] + O	1006.5
[Cl-].[Li+] [lithium chloride] + O	997.4
[Cl-].[K+] [potassium chloride] + O	1008.4
[Br-].[Li+] [lithium bromide] + O	1017.2

# context switch: different compound, same mass density
Q: Specify mass density for [Cs+].[I-] [cesium iodide] + O and stop.
Ans: 1090.6

###

# assay.procedure: xn = mol fraction of the nth substance listed
# condition.info: 303.15 K; 100 kPa; Liquid; Vibrating tube method; x1 = 0.01
measure.name: mass density (kg/m3)
Give your result in kg/m3 as a bare value.

Worked cases, mass density given:
[Cl-].[Cs+] [cesium chloride] + O	1066.3
[Br-].[Rb+] [rubidium bromide] + O	1065
[F-].[Na+] [sodium fluoride] + O	1019.7
[Cl-].[Rb+] [rubidium chloride] + O	1044.8

Q: Answer with the recorded mass density of [I-].[Na+] [sodium iodide] + O only.
Ans: 1058.4

Q: Output mass density of [Cl-].[K+] [potassium chloride] + O
Ans: 1021.4

Q: Item [F-].[Rb+] [rubidium fluoride (RbF)] + O : provide mass density
Ans: 1045.7

###

# assay.procedure: xn = mol fraction of the nth substance listed
# condition.info: 333.15 K; 100 kPa; Liquid; Vibrating tube method; x1 = 0.01
measure.name: mass density (kg/m3)
Write the value in kg/m3 as a bare number.

As a guide, the following entries are already answered.
[Br-].[Cs+] [cesium bromide] + O	1072.4
[F-].[Rb+] [rubidium fluoride (RbF)] + O	1032.6
[I-].[Li+] [lithium iodide] + O	1036.2
[Cl-].[Rb+] [rubidium chloride] + O	1031.2
[Cl-].[Na+] [sodium chloride] + O	1005.1

Q: Give a short answer stating reported mass density for [Br-].[Na+] [sodium bromide] + O .
Ans: 1026

Q: // fetch mass density given entry [Cl-].[Cs+] [cesium chloride] + O
Ans: 1052.4

Q: Look up and report measured mass density for this entry: [I-].[Rb+] [rubidium iodide (RbI)] + O
Ans: 1069.6

Q: Let me know recorded mass density for [Br-].[Rb+] [rubidium bromide] + O , thanks.
Ans: 1050.9

Q: Consider the compound [I-].[K+] [potassium iodide] + O . State its measured mass density.
Ans: 1047.9

Q: Give mass density for [Cs+].[F-] [cesium fluoride (CsF)] + O
Ans: 1053

Q: For [I-].[Na+] [sodium iodide] + O , write its mass density.
Ans: 1044.1

###

Below, each entry is listed alongside its reported mass density.
# assay.procedure: xn = mol fraction of the nth substance listed
# condition.info: 313.15 K; 100 kPa; Liquid; Vibrating tube method; x1 = 0.05
Give the number; kg/m3 is assumed, so skip it.

Q: // Input: [Br-].[Li+] [lithium bromide] + O . Output its mass density only.
Ans: 1163.9
